- Test system: Streptococcus salivarius
- procedure.text: growth AUC relative to DMSO control (median of replicates) (fraction); higher = more growth (less inhibition), active = hit call of the paper
- experimental.setup: 20 µM; 24 h
# if value of growth AUC reaches 1, tag YES; if it stays below, tag NO

Here are 5 molecules together with their reported answers.
Q) In plain terms: is recorded growth AUC at least 1 for Oc1c(Cl)c(Cl)cc(Cl)c1Cl ?
A) NO

Q) In plain terms: is recorded growth AUC at least 1 for Nc1nc(N)nc(Cl)n1 ?
A) YES

Q) In plain terms: is recorded growth AUC at least 1 for CCN(CC)c1c([N+](=O)[O-])cc(C(F)(F)F)c(N)c1[N+](=O)[O-] ?
A) YES

Q) In plain terms: is recorded growth AUC at least 1 for ClC1=C(Cl)[C@]2(Cl)[C@@H]3[C@@H]4C[C@@H]([C@H]5O[C@@H]45)[C@@H]3[C@@]1(Cl)C2(Cl)Cl ?
A) YES

Q) In plain terms: is recorded growth AUC at least 1 for COCC(C)N(C(=O)CCl)c1c(C)csc1C (configuration not stated) ?
A) NO

Further cases:
Q) In plain terms: is recorded growth AUC at least 1 for N#Cc1cc(I)c(O)c(I)c1 ?
A) NO

Q) In plain terms: is recorded growth AUC at least 1 for CNC(=O)O/N=C/C(C)(C)SC ?
A) YES

The measurements presented in this section are drawn from the supplement of paper PMC12669032.
